Target: ΔF508-CFTR (Homo sapiens, UniProt P13569, DEL508-508)
Construct: host or cells: CFBE41o-, doxycycline-inducible
Sequence (P13569 with tags, fused parts or gaps DEL508-508): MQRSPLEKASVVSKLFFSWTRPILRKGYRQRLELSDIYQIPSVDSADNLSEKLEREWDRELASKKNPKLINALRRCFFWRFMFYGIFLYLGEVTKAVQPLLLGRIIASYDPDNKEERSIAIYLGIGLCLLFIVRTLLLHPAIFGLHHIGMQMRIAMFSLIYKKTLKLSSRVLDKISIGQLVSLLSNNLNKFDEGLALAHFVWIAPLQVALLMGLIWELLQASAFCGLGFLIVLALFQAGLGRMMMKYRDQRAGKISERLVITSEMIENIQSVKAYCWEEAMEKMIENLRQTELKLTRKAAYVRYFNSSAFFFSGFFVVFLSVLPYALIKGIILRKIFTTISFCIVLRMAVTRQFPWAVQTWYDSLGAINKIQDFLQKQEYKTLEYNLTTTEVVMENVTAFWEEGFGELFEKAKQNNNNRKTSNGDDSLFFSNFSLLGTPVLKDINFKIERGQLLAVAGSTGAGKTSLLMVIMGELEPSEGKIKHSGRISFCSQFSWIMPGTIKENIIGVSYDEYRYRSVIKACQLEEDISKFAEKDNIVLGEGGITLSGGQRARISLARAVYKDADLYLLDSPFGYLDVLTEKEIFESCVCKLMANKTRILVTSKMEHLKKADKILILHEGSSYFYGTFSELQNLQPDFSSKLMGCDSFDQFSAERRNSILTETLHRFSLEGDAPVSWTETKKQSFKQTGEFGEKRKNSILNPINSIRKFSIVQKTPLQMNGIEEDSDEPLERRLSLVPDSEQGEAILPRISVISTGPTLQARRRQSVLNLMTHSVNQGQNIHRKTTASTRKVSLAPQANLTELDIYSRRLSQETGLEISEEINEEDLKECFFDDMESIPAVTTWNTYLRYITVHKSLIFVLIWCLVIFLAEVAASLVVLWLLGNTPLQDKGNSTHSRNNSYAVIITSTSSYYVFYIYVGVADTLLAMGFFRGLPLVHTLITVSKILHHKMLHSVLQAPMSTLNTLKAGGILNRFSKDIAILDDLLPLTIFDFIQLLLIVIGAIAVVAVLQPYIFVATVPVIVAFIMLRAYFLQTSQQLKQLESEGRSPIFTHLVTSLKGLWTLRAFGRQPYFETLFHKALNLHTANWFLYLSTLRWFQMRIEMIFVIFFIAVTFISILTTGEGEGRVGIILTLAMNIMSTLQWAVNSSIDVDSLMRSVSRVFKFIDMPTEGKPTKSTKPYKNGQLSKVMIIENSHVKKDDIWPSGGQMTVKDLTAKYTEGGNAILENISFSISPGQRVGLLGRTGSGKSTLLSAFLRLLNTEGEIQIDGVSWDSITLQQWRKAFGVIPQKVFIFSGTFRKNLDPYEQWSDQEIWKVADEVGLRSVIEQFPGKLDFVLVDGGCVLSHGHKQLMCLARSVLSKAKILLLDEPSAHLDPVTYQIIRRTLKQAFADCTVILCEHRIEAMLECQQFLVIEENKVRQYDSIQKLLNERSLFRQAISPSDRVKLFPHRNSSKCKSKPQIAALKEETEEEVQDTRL
Test: CFTR cell surface levels using HRP-tagged ΔF508-CFTR expressing CFBE cells, intrinsic corrector capacity
Type: cell-based
Conditions: HRP-tagged ΔF508-CFTR expressing CFBE41o- cells; compound alone (intrinsic corrector capacity); 20 hours at 33° C.; read-out: EC50
Quantity measured: EC50 (nM)
Field: numeric (nM). Do not append units.

Answered examples (10):
O=C(c1cc(N2CCC(N3CCOCC3)CC2)c2c(C3CCC3)nn(-c3ccccc3)c2n1)N1CCCCS1(=O)=O | 256
CC1(S(=O)(=O)NC(=O)c2cc(N3CCC(N4CCN(C5CC5)CC4)CC3)c3c(C4CCC4)nn(-c4ccccc4)c3n2)CC1 | 252
CCS(=O)(=O)NC(=O)c1cc(-c2ccc(N3CCOCC3)nc2)c2c(C(C)C)nn(-c3cccc(N(C)C)c3)c2n1 | 780
CC(C)Oc1cc(-n2nc(C3CCC3)c3c(N4CCC(N5CCOCC5)CC4)cc(C(=O)NS(C)(=O)=O)nc32)ccn1 | 54.4
CC(C)c1nn(-c2ccc(F)cc2)c2nc(C(=O)NS(C)(=O)=O)cc(N3CCN(CC(F)(F)F)CC3)c12 | 332
CS(=O)(=O)NC(=O)c1cc(N2CCC3(C2)CC3(F)F)c2c(C3CCC3)nn(-c3ccccc3)c2n1 (centres unmarked) | 595
CN(C)CCCOc1cc(C(=O)NS(C)(=O)=O)nc2c1c(C1CCC1)nn2-c1ccccc1 | 3330
COCC1CCN(c2cc(C(=O)NS(=O)(=O)C3CCOC3)nc3c2c(C2CCC2)nn3-c2ccccc2)CC1 (centres unmarked) | 101
CS(=O)(=O)NC(=O)c1cc(-c2ccc(N3CCC(C#N)CC3)nc2)c2c(OC3CCOC3)nn(-c3ccccc3)c2n1 (centres unmarked) | 251
COCC1CCN(c2cc(C(=O)NS(C)(=O)=O)nc3c2c(C2CCC2)nn3-c2ccnc(OC)c2)CC1 | 121

Now take the following molecule into account.
Documented EC50 of CCCN(C)S(=O)(=O)NC(=O)c1cc(N2CCC(N3CCN(C4CC4)CC3)CC2)c2c(C3CCC3)nn(-c3ccccc3)c2n1 : 108

====

log10 of EC50 values by entry
Molecular target: ΔF508-CFTR (Homo sapiens, UniProt P13569, DEL508-508)
Construct: host or cells: CFBE41o-, doxycycline-inducible
Assay: CFTR cell surface levels using HRP-tagged ΔF508-CFTR expressing CFBE cells, intrinsic corrector capacity
Type: cell-based
Details: HRP-tagged ΔF508-CFTR expressing CFBE41o- cells; compound alone (intrinsic corrector capacity); 20 hours at 33° C.; read-out: EC50
Units before log transform: µM; reported quantity: EC50; transform: log10.

CCS(=O)(=O)NC(=O)c1cc(N2CCC(OC)CC2)c2c(C(C)C)nn(-c3cccc(C)c3)c2n1 | -0.40

Documented log10 of EC50 of CS(=O)(=O)NC(=O)c1cc(N2CCN(CC(F)(F)F)CC2)c2c(C3CCC3)nn(-c3ccccc3)c2n1 : -0.80

Documented log10 of EC50 of COC1CCN(c2cc(C(=O)NS(C)(=O)=O)nc3c2c(C(C)C)nn3-c2cccc(C)c2)CC1 : -0.48

Documented log10 of EC50 of CC(C1CCN(c2cc(C(=O)NS(=O)(=O)N(C)C)nc3c2c(C2CCC2)nn3-c2ccc(F)cc2)CC1)N1CCOCC1 (stereo not drawn) : -0.89
